Data provenance: PubChem BioAssay (EPA / NIEHS)

read-out: Vascular cell adhesion molecule 1 (VCAM1), VCAM1 (gene 7412); test: BSK_4H_VCAM1: BioMAP Diversity Plus: 4H Assay for Vascular cell adhesion molecule 1 (VCAM1) Biomarker Activity (AID 2283033); details: primary human endothelial cells (HUVEC); actives raise or lower the signal
Activity calls are given as the source filed them. Rule for the calls: active = hit-call score of the fitted dose curve at least 0.9, where 1 is the maximum; inactive = score below 0.9.
Field 'call' accepts 1 (yes) for active, 0 (no) for inactive

Below, 3 compounds whose answers are already recorded.
[[record]]
smiles_representation = "COc1ccc(O)c(C(C)(C)C)c1"
label_class = "0 (no)"

[[record]]
smiles_representation = "O=C(N[C@H]1CN2CCC1CC2)c1cc2ccoc2cn1"
label_class = "0 (no)"

[[record]]
smiles_representation = "CC(c1ccc(O)cc1)(c1ccc(O)cc1)c1ccc(O)cc1"
label_class = "1 (yes)"


Query string: Per the assay record, what outcome was assigned to CCCCCCOC(=O)c1ccccc1C(=O)OCCCCCC ?
Result string: 0 (no)

Query string: Per the assay record, what outcome was assigned to O=C(NC(=O)c1cc(F)c(F)cc1Cl)Nc1cc(F)ccc1N1CCC(C(=O)O)CC1 ?
Result string: 0 (no)

----------
read-out: matrix metalloproteinase-10 (MMP10), MMP10 (gene 4319); experiment: LTEA_HepaRG_MMP10: Life Technologies and Expression Analysis (LTEA) Assay for matrix metalloproteinase-10 (MMP10) using HepaRG (AID 2283517); details: mRNA level, 48 h; actives raise or lower the signal
The source made the active and inactive calls. The calls were made as follows: active = hit-call score of the fitted dose curve at least 0.9, where 1 is the maximum; inactive = score below 0.9.
Field 'call' accepts active, inactive

Below, 8 molecules whose answers are already recorded.
[[record]]
molecule = "ClC1=C(Cl)[C@]2(Cl)[C@@H]3[C@@H](Cl)[C@H]4O[C@H]4[C@@H]3C1(Cl)C2(Cl)Cl"
label_class = "inactive"

[[record]]
molecule = "CC(C)(c1ccccc1)c1ccc(O)cc1"
label_class = "inactive"

[[record]]
molecule = "CC#Cc1cc(C)nc(Nc2ccccc2)n1"
label_class = "inactive"

[[record]]
molecule = "NS(=O)(=O)C(F)(F)C(F)(F)C(F)(F)C(F)(F)C(F)(F)C(F)(F)C(F)(F)C(F)(F)F"
label_class = "active"

[[record]]
molecule = "Cc1ccccc1CO[C@@H]1C[C@@]2(C(C)C)CC[C@]1(C)O2"
label_class = "inactive"

[[record]]
molecule = "CCOP(=S)(OCC)SCSC(C)(C)C"
label_class = "inactive"

[[record]]
molecule = "CN(C)c1nc(=O)n(C2CCCCC2)c(=O)n1C"
label_class = "inactive"

[[record]]
molecule = "Cc1ccc(O)c(C)c1"
label_class = "inactive"


Query string: Per the assay record, what outcome was assigned to CCCCCCCCOC(=O)c1ccccc1C(=O)OCCCCCCCC ?
Result string: inactive

Query string: Per the assay record, what outcome was assigned to ClC1=C(Cl)[C@]2(Cl)[C@@H]3[C@H]4C[C@H]([C@@H]5O[C@H]45)[C@@H]3[C@@]1(Cl)C2(Cl)Cl ?
Result string: inactive

Query string: Per the assay record, what outcome was assigned to O=NN(c1ccccc1)c1ccccc1 ?
Result string: inactive

Query string: Per the assay record, what outcome was assigned to Cc1cccc([N+](=O)[O-])c1 ?
Result string: inactive

Query string: Per the assay record, what outcome was assigned to ClC1=C(Cl)[C@]2(Cl)[C@@H]3[C@@H]4C[C@@H]([C@H]5O[C@@H]45)[C@@H]3[C@@]1(Cl)C2(Cl)Cl ?
Result string: inactive

----------
read-out: CYP2C8 (gene 1558); test: LTEA_HepaRG_CYP2C8: Life Technologies and Expression Analysis (LTEA) Assay for CYP2C8 using HepaRG (AID 2283483); settings: mRNA level, 48 h; actives raise or lower the signal
Activity calls are given as the source filed them. Rule for the calls: active = hit-call score of the fitted dose curve at least 0.9, where 1 is the maximum; inactive = score below 0.9.
REPORTED_PROPERTY: AC50

# example entries with known answers
[[record]]
compound = "CO/C=C(/C(=O)OC)c1ccccc1COc1cccc(C(F)(F)F)n1"
assay_result = "8.74 µM (active)"

[[record]]
compound = "ClC1=C(Cl)[C@]2(Cl)[C@@H]3[C@@H](Cl)[C@H]4O[C@H]4[C@@H]3C1(Cl)C2(Cl)Cl"
assay_result = "inactive"

[[record]]
compound = "Oc1c(Cl)c(Cl)c(Cl)c(Cl)c1Cl"
assay_result = "4.44 µM (active)"

[[record]]
compound = "Clc1ccc(C(Cl)(Cl)Cl)cc1"
assay_result = "inactive"

[[record]]
compound = "Clc1ccc(C(c2ccccc2Cl)C(Cl)(Cl)Cl)cc1 (configuration not stated)"
assay_result = "0.794 µM (active)"


Query string: Requested field: AC50. Item: Nc1ccc(-c2ccc(N)cc2)cc1
Result string: inactive

Query string: Requested field: AC50. Item: c1cc2ccc3cccc4ccc(c1)c2c34
Result string: 4.67 µM (active)

Query string: Requested field: AC50. Item: CCC(C)c1cc([N+](=O)[O-])cc([N+](=O)[O-])c1O (configuration not stated)
Result string: 2.6 µM (active)

Query string: Requested field: AC50. Item: COc1ccc(O)c(C(C)(C)C)c1
Result string: inactive

Query string: Requested field: AC50. Item: C1CC2OC2CC1C1CO1 (configuration not stated)
Result string: inactive

Query string: Requested field: AC50. Item: O=C(O)C(F)(F)C(F)(F)C(F)(F)C(F)(F)C(F)(F)C(F)(F)C(F)(F)C(F)(F)C(F)(F)F
Result string: 76.6 µM (active)

Query string: Requested field: AC50. Item: Cc1ccccc1CO[C@@H]1C[C@@]2(C(C)C)CC[C@]1(C)O2
Result string: 50 µM (active)

----------
read-out: adenosine kinase (ADK) gene, ADK (gene 132); assay: LTEA_HepaRG_ADK: Life Technologies and Expression Analysis (LTEA) Assay for adenosine kinase (ADK) gene using HepaRG (AID 2283471); details: mRNA level, 48 h; actives raise or lower the signal
Calls of active or inactive are those of the source. Rule for the calls: active = hit-call score of the fitted dose curve at least 0.9, where 1 is the maximum; inactive = score below 0.9.
REPORTED_PROPERTY: AC50

[[record]]
compound = "ClC1=C(Cl)[C@]2(Cl)[C@@H]3[C@H]4C[C@H]([C@@H]5O[C@H]45)[C@@H]3[C@@]1(Cl)C2(Cl)Cl"
assay_result = "inactive"

[[record]]
compound = "NS(=O)(=O)C(F)(F)C(F)(F)C(F)(F)C(F)(F)C(F)(F)C(F)(F)C(F)(F)C(F)(F)F"
assay_result = "4.81 µM (active)"

[[record]]
compound = "CCNc1nc(NC(C)C)nc(SC)n1"
assay_result = "inactive"

[[record]]
compound = "Nc1ccc(-c2ccc(N)cc2)cc1"
assay_result = "inactive"

[[record]]
compound = "CCCN(CCC)N=O"
assay_result = "inactive"


Query string: Requested field: AC50. Item: CC(C)C(=O)OCC(C)(C)C(OC(=O)C(C)C)C(C)C (stereo not given)
Result string: inactive

Query string: Requested field: AC50. Item: O=C(NC(=O)c1c(F)cccc1F)Nc1cc(Cl)c(OC(F)(F)C(F)F)c(Cl)c1
Result string: inactive

Query string: Requested field: AC50. Item: Cc1cccc([N+](=O)[O-])c1
Result string: inactive

Query string: Requested field: AC50. Item: Cc1cc2c3c(c1)C(c1ccccc1)=N[C@@H](NC(=O)c1ccncc1)C(=O)N3CC2
Result string: inactive

Query string: Requested field: AC50. Item: CCOCCOC(C)=O
Result string: inactive

Query string: Requested field: AC50. Item: N#Cc1ccc(N(CC(N)=O)CC(F)(F)F)cc1C(F)(F)F
Result string: inactive

Query string: Requested field: AC50. Item: O=C(O)C(F)(F)C(F)(F)C(F)(F)C(F)(F)C(F)(F)C(F)(F)C(F)(F)C(F)(F)C(F)(F)F
Result string: 81.1 µM (active)

Query string: Requested field: AC50. Item: CN(C)c1nc(=O)n(C2CCCCC2)c(=O)n1C
Result string: inactive

Query string: Requested field: AC50. Item: c1cc2ccc3cccc4ccc(c1)c2c34
Result string: inactive

Query string: Requested field: AC50. Item: Cc1ccc(O)c(C)c1
Result string: inactive

Query string: Requested field: AC50. Item: Cc1cc(O)ccc1Cl
Result string: inactive

----------
Assay: CCTE_Simmons_MITO_inhib_resp_rate: CCTE's HepG2 Seahorse XF Respirometric Screening Assay at Inhibited Respiratory State [full ETC block], Simmons Lab (AID 2284006)
Settings: actives raise or lower the signal
Protocol: CCTE_Simmons_MITO is cell-based, respirometric assay using HepG2 cells and a Seahorse XF Analyzer to measure oxygen consumption rates over four temporal phases spanning a total of 72 minutes: pre-injection (pre-treatment), basal (following test compound injection), maximal (following FCCP uncoupler injection), and inhibited (following rotenone/antimycin A injection)CCTE_Simmons_MITO_inhib_resp_rate is one of 4 assay components calculated from the CCTE_Simmons_MITO assay. […]
The source made the active and inactive calls. How the source made its calls: active means hit-call score of the fitted dose curve at least 0.9, where 1 is the maximum; inactive means score below 0.9.
Field 'call' accepts active, inactive

[[record]]
molecule = "Oc1ccc(C(c2ccc(O)cc2)(C(F)(F)F)C(F)(F)F)cc1"
label_class = "inactive"

[[record]]
molecule = "O=C(O)C(F)(F)C(F)(F)C(F)(F)C(F)(F)C(F)(F)C(F)(F)C(F)(F)C(F)(F)C(F)(F)F"
label_class = "inactive"

[[record]]
molecule = "CC(c1ccc(O)cc1)(c1ccc(O)cc1)c1ccc(O)cc1"
label_class = "inactive"

[[record]]
molecule = "CO/C=C(/C(=O)OC)c1ccccc1COc1cccc(C(F)(F)F)n1"
label_class = "active"

[[record]]
molecule = "CCCCCCCCCC[N+](C)(C)CCCCCCCCCC"
label_class = "inactive"

[[record]]
molecule = "Oc1c(Cl)c(Cl)c(Cl)c(Cl)c1Cl"
label_class = "inactive"

[[record]]
molecule = "C[C@]12CCC(=O)C=C1CC[C@@H]1[C@@H]2CC[C@]2(C)C(=O)CC[C@@H]12"
label_class = "inactive"

[[record]]
molecule = "O=C(O)C(F)(F)C(F)(F)C(F)(F)C(F)(F)C(F)(F)C(F)(F)C(F)(F)C(F)(F)F"
label_class = "inactive"


Query string: Per the assay record, what outcome was assigned to COc1ccc(O)c(C(C)(C)C)c1 ?
Result string: inactive

Query string: Per the assay record, what outcome was assigned to CCC(=O)O[C@H]1CC[C@H]2[C@@H]3CCC4=CC(=O)CC[C@]4(C)[C@H]3CC[C@]12C ?
Result string: inactive

Query string: Per the assay record, what outcome was assigned to C[C@]12CCC(=O)C=C1CC[C@@H]1[C@@H]2CC[C@@]2(C)[C@H]1CC[C@]2(C)O ?
Result string: inactive

Query string: Per the assay record, what outcome was assigned to CCC(C)c1cc([N+](=O)[O-])cc([N+](=O)[O-])c1O (configuration not stated) ?
Result string: inactive
